Target: T1, recombinant human IP-10 (human, UniProt P02778 22-98)
T1 sequence: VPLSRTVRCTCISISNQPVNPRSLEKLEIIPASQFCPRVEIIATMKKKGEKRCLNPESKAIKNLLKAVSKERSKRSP
Assay: cell-based or functional assay
parameter: inhibition of chemotaxis (IC50%) on recombinant IP-10, donor 318 (µg/mL)

{"binder": "murine monoclonal antibody AIP13 (antibody, V domains shown, Mouse hybridoma antibody; Mouse IgG1/kappa was used as its isotype control; also called MuAIP13) VH: QIQLVQSGPELKKPGETVKISCKASGYTFTDYSMHWVKQAPGKGLKWMGWINTEIGEPTYADDFKGRFAFSLETSASTAYLQINNLKNEDTATYFCARNYDYDAYFDVWGAGTTVTVSS VL: DIQMTQSPSSLSASLGGKVTITCKADQDINKYIAWYQHKPGRGPRLLLHHTSTLQPGIPSRFSGSGSGRDYSFSISNLEPADIATYYCLQYDSLLFTFGSGTKLEIK", "units": "µg/mL", "recordedNumber": 0.139}
{"binder": "murine monoclonal antibody AIP12 (antibody, V domains shown, Mouse hybridoma antibody; also called MuAIP12) VH: QIQLVQSGPELKKPGETVKISCKASGYTFTDYSMHWVKQAPGKGLKWMGWINTETGEPTYADDFKGRFAFSLETSASTAYLQINNLKNEDTATYFCARNYDYDGYFDVWGAGTTVTVSS VL: DIQMTQSPSSLSASLGGKVTITCKASQDINKYIAWYQHKPGKGPRLLIHYTSTLQPGIPSRFSGSGSGRDYSFSISNLEPEDIATYYCLQYDNLLFTFGSGTKLEIK", "units": "µg/mL", "recordedNumber": 0.041}
{"binder": "humanized monoclonal antibody HuAIP12 (antibody, human IgG1, V domains shown, Human IgG1/kappa; also called unmodified HuAIP12; Wild Type) VH: EVQLVQSGAEVKKPGATVKISCKVSGYTFTDYSMHWVRQAPGKGLKWMGWINTETGEPTYADDFKGRFTFTLDTSTSTAYMELSSLRSEDTAVYYCARNYDYDGYFDVWGQGTTVTVSS VL: DIQMTQSPSSLSASVGDRVTITCKASQDINKYIAWYQQKPGKAPKLLIHYTSTLQPGIPSRFSGSGSGRDYTFTISSLQPEDIATYYCLQYDNLLFTFGQGTKLEIK", "units": "µg/mL", "recordedNumber": 0.038}
